# Test system: RXF 631
# test protocol: NCI tumour cell line growth inhibition, 48 h
The source made the active and inactive calls. Cut-off read from the data, not from the text of the source: active = GI50 up to about 1.1 µM and inactive = higher.
Catalogue of GI50 readings, one per entry.

| compound | GI50 |
| --- | --- |
| N#CC(C(=O)/C(=N\NC(N)=O)C(C#N)c1ccc(Cl)cc1)c1ccc(Cl)cc1 (stereo not drawn) | > 100 µM (inactive) |
| CCc1cccc(C)c1N1C(=O)C(=O)C(c2nc3ccccc3o2)/C(=N/NC(=S)NN)C1=O (stereo not drawn) | > 100 µM (inactive) |
| O=C(Nc1ccc([N+](=O)[O-])cc1[N+](=O)[O-])C(=O)C(C(=O)c1ccc2ccccc2c1)C1OC(=O)c2ccccc21 (stereo not drawn) | 16.6 µM (inactive) |
